# testTarget: T1, human LAP-TGFB1 Fc fusion (human)
# T1 construct: also called human LAP-TGFβ1-Fc; human LAP-TGFβ-Fc isoform 1
# T1 sequence (chain, as listed by the source limits assumed): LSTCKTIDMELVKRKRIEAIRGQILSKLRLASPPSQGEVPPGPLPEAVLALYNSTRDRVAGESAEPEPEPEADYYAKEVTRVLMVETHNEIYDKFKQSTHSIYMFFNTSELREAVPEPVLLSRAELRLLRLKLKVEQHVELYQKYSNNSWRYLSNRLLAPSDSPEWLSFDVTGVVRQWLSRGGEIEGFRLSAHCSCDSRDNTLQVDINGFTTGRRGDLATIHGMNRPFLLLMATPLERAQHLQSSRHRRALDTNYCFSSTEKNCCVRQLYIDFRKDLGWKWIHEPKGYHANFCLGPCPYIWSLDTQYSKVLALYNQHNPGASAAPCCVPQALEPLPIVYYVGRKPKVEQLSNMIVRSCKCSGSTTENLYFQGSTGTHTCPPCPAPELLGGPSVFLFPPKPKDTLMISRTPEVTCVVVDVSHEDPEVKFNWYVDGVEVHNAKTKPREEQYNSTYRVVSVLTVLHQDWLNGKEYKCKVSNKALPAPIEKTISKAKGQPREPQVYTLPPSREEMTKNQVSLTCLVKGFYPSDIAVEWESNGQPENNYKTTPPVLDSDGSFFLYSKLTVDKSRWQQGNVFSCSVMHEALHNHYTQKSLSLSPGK
# procedureDetails: SPR pH 7.4, antigen-Fc captured, Fab analyte
readoutKind: kon (M⁻¹ s⁻¹)

>  <binder>
61BLH (Fab, V domains shown, also called 13BLM Fab) VH: EVQLVQSGAEVKKPGASVKVSCKASGYTFTSYDMHWVRQAPGQGLEWMGRIDPQTGDIKYAQKFQGRATLTVDTSTSTAYMELSRLRSDDTAVYYCARWDYGGQFDVWGQGTLVTVSS VL: DIQMTQSPSSLSASVGDRVTITCRASQDIYNYLNWYQQKPGKAVKLLIYYTSGLETGVPSRFSGSGSGTDYTLTISSLQPEDFATYFCQQGDTLPWTFGQGTKLEIK

>  <resultNumber>
3.57e+06

$$$$
>  <binder>
63BLH (Fab, V domains shown, also called 15BLM Fab; 015BLM Fab) VH: EVQLVQSGAEVKKPGASVKVSCKASGYTFTSYDMHWVRQAPGQGLEWMGRIDPQSGGIKYAQKFQGRATLTVDTSTSTAYMELSRLRSDDTAVYYCARWDYGGYFDVWGQGTLVTVSS VL: DIQMTQSPSSLSASVGDRVTITCRASQDIYNYLNWYQQKPGKAVKLLIYYTSRLETGVPSRFSGSGSGTDYTLTISSLQPEDFATYFCQQGDTLPWTFGQGTKLEIK

>  <resultNumber>
6.79e+06

$$$$
>  <binder>
62BLH (Fab, V domains shown, also called 14BLM Fab) VH: EVQLVQSGAEVKKPGASVKVSCKASGYTFTSYDTHWVRQAPGQGLEWMGRIDPQSGGIKYAQKFQGRATLTVDTSTSTAYMELSRLRSDDTAVYYCARWDYGGYFDVWGQGTLVTVSS VL: DIQMTQSPSSLSASVGDRVTITCRASQDIYNYLNWYQQKPGKAVKLLIYYTSYLETGVPSRFSGSGSGTDYTLTISSLQPEDFATYFCQQGDTLPWTFGQGTKLEIK

>  <resultNumber>
4.69e+06

$$$$
>  <binder>
58BLH (Fab, V domains shown, also called 10BLM Fab) VH: EVQLVQSGAEVKKPGASVKVSCKASGYTFTSYDMHWVRQAPGQGLEWMGRIDPQSGGTKYAQKFQGRATLTVDTSTSTAYMELSRLRSDDTAVYYCARWDYGGYFDVWGQGTLVTVSS VL: DIQMTQSPSSLSASVGDRVTITCRASQDIYNYLNWYQQKPGKAVKLLIYYTSVLETGVPSRFSGSGSGTDYTLTISSLQPEDFATYFCQQGDTLPWTFGQGTKLEIK

>  <resultNumber>
5.93e+06

$$$$
>  <binder>
65BLH (Fab, V domains shown, also called 17BLM Fab) VH: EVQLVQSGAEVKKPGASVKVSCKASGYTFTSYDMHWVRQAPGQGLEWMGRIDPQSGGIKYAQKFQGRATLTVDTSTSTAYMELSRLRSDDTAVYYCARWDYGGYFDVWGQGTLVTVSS VL: DIQMTQSPSSLSASVGDRVTITCRASQDIYNYLNWYQQKPGKAVKLLIYYTSRLETGVPSRFSGSGSGTDYTLTISSLQPEDFATYFCQQGDELPWTFGQGTKLEIK

>  <resultNumber>
7.33e+06

$$$$
